- System: E. coli NCTC 12923 growth inhibition, 100 uM
- protocolNotes: microbial growth inhibition plus red cell haemolysis – Idler compounds, first plate, PMBN-permeabilized strains, profiling panel (AID 2061108)
- conditionLabel: E. coli NCTC 12923 growth inhibition, 100 µM; stronger effect = higher value

[
  {
    "molecule": "CN(C)C(=O)c1cncc(-c2cccc(C3(C#N)CC3)c2)c1",
    "inhibition, %": -5
  },
  {
    "molecule": "N#Cc1cc(-c2cccc(Cl)c2)no1",
    "inhibition, %": -0.811
  },
  {
    "molecule": "CC1(C)C2CCC1(C)C(OCC(O)CNC1CCCCC1)C2 (configuration not stated)",
    "inhibition, %": 19.9
  },
  {
    "molecule": "Cc1cc(C)c(S(=O)(=O)N2CCC(C(=O)NCc3cccnc3)CC2)c(C)c1",
    "inhibition, %": -1.08
  },
  {
    "molecule": "O=C(Nc1ccc(OC2CCCCC2)cc1)c1ccc(-c2nn[nH]n2)cc1",
    "inhibition, %": 1.08
  },
  {
    "molecule": "O=S(=O)(c1ccc2nncn2c1)N(Cc1cccc(F)c1)c1ccc2c(c1)OCCO2",
    "inhibition, %": -55.8
  },
  {
    "molecule": "N#Cc1ccc(NC2Cc3cccc(O)c3C2)cc1Cl (configuration not stated)",
    "inhibition, %": 25
  }
]

###

The compounds listed here are annotated with their inhibition.
- Tested on: E. coli NCTC 12923 growth inhibition, 100 uM
- protocolNotes: microbial growth inhibition plus red cell haemolysis – Idler compounds, first plate, PMBN-permeabilized strains, profiling panel (AID 2061108)
- conditionLabel: E. coli NCTC 12923 growth inhibition, 100 µM; stronger effect = higher value

[
  {
    "compound": "Nc1ncnc2cc(-c3cccc(S(=O)(=O)NC(=O)C(N)CC(=O)O)c3)sc12 (configuration not stated)",
    "inhibition, %": 0.676
  },
  {
    "compound": "COc1ccc(-c2ccc(CNc3ccnc(S(=O)(=O)F)c3)s2)cc1",
    "inhibition, %": 5.81
  },
  {
    "compound": "Cc1ccc(CN2C(=O)NC3(CCN(C(=O)C(C)Oc4ccccc4)CC3)C2=O)cc1 (configuration not stated)",
    "inhibition, %": -2.03
  },
  {
    "compound": "NC(=O)CSc1nnc(COc2ccccc2)n1-c1ccccc1",
    "inhibition, %": -3.24
  },
  {
    "compound": "Oc1ccc(CN2CCN(c3ccccc3F)CC2)c2cccnc12",
    "inhibition, %": -2.43
  },
  {
    "compound": "Cc1ncsc1CCCN(C)c1cnc(S(=O)(=O)F)c(Br)c1",
    "inhibition, %": 1.49
  },
  {
    "compound": "O=C(NC1(c2ccc(Cl)cc2)COC1)c1ccc(N2CCCCC2)cc1",
    "inhibition, %": -30
  },
  {
    "compound": "COc1cc2nc(Nc3cc(C)[nH]n3)nc(Nc3cc(C)[nH]n3)c2cc1OC",
    "inhibition, %": 12.7
  },
  {
    "compound": "CCC(C)C(N)C(=O)NS(=O)(=O)c1cccc(-c2cc3ncnc(N)c3s2)c1 (configuration not stated)",
    "inhibition, %": -29.6
  },
  {
    "compound": "CC(=O)NCCC(=O)NNC(=O)c1cc(-c2ccccn2)nc2ccccc12",
    "inhibition, %": -5.54
  },
  {
    "compound": "COC(COc1cncc2nnc(-c3ccc(OC(F)F)cc3)n12)c1ccccc1 (configuration not stated)",
    "inhibition, %": -38.8
  },
  {
    "compound": "Cc1cc(NC(=O)c2ccc(F)c(C(C)(C)C#N)c2)nn1C",
    "inhibition, %": -2.97
  }
]

# credit: PubChem BioAssay AID2061108
